molecular target: UniProt P49768; test: in vitro assay of γ-secretase activity (HEK293 membrane fraction, recombinant APP substrate, Abeta ELISA); type: biochemical; details: γ-secretase inhibition; HEK293 membrane fraction as source of γ-secretase, recombinant C-terminal 100 amino acids of human APP as substrate, Abeta detected by ELISA
pIC50: −log10 of the molar value.
So basically: pIC50 at 7 or higher? That is true (1). Lower than 7? That is false (0).

Please review the following examples before continuing.
>  <COMPOUND>
COc1ccc(CN([C@@H]2CC(F)(F)CCNC2=O)S(=O)(=O)c2ccc(Cl)cc2)c(F)c1F [Example 4]

>  <TEST TARGET>
UniProt P49768

>  <ASSIGNED LABEL>
true (1)

$$$$
>  <COMPOUND>
O=C1NCCC(F)(F)C[C@H]1N(Cc1ccc(-c2ncn[nH]2)cc1F)S(=O)(=O)c1ccc(Cl)cc1 [Example 12]

>  <TEST TARGET>
UniProt P49768

>  <ASSIGNED LABEL>
true (1)

$$$$

Below: the item to evaluate.
Prompt: I'd appreciate it if you could say whether O=C(NC1CC1)c1ccc(CN([C@@H]2CCC(F)(F)CNC2=O)S(=O)(=O)c2ccc(Cl)cc2)cc1 [Example 13] has pIC50 at least equal to 7.
Response: false (0)
